Target: T1, CRBN, Q96SW2;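 further: pooled lentiviral library of zinc finger degron-EGFP fusions in mCherry-positive Jurkat cells, FACS-sorted after compound exposure, with degron abundance counted by next-generation sequencing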
T1 chain: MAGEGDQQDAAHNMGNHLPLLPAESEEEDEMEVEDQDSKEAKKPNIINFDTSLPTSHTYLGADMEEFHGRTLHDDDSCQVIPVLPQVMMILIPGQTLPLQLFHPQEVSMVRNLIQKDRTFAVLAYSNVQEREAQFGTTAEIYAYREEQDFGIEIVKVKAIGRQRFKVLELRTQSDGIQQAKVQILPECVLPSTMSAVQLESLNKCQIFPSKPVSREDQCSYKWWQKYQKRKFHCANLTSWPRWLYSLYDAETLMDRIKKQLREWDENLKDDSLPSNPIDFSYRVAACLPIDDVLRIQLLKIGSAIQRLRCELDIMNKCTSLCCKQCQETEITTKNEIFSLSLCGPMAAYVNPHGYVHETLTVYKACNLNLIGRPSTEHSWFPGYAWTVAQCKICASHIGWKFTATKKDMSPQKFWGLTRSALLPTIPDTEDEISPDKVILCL
Experiment: log2 fold change of degron read counts, EGFP-low vs EGFP+ sorted cells (limma voom), compound-induced degradation; higher = more compound-induced degradation of the degron-EGFP fusion; degrons are variants of IKZF1/3 zinc finger 2; compound dose not given here
Details: Jurkat; 18 h; compound: thalidomide
In all, about 8,300 sequences were measured (“log2 fold change of degron read counts, EGFP-low vs EGFP+ sorted cells (limma voom), compound-induced degradation”: median about -1.1, highest 2% from about 3.2 on). The sample as a whole holds a higher share of the highest values than the screen did.
Classes (log2 fold change of degron read counts): low (below -1), intermediate (-1 to below 1), high (1 or more)

RESIDUES	CLASS NAME
FYCEQCGAPFTQKGNLLRHIKL [46F_47Y_49E_50Q_52G_53A_54P_55F_67L_, Q9UKT9]	low
FGCDQCGARFTQKGNLLRHIKL [46F_47G_49D_50Q_52G_53A_54R_55F_67L_, Q9UKT9]	low
FECNICGASFTQKGNLLRHIKL [46F_47E_49N_50I_52G_53A_54S_55F_67L_, Q9UKT9]	high
FGCNQCGAHFTQKGNLLRHIKL [46F_47G_49N_50Q_52G_53A_54H_55F_67L_, Q9UKT9]	low
FACNQCGRGFTQKGNLLRHIKL [46F_47A_49N_50Q_52G_53R_54G_55F_67L_, Q9UKT9]	low
FICEVCGADFTQKGNLLRHIKL [46F_47I_49E_50V_52G_53A_54D_55F_67L_, Q9UKT9]	intermediate
FRCPICGASFTQKGNLLRHIKL [46F_47R_49P_50I_52G_53A_54S_55F_67L_, Q9UKT9]	high
FICNQCGADFTQKGNLLRHIKL [46F_47I_49N_50Q_52G_53A_54D_55F_67L_, Q9UKT9]	low
FMCEICGHPFTQKGNLLRHIKL [46F_47M_49E_50I_52G_53H_54P_55F_67L_, Q9UKT9]	intermediate
FECPICGASFTQKGNLLRHIKL [46F_47E_49P_50I_52G_53A_54S_55F_67L_, Q9UKT9]	high

Query string: Input FFCEICGHPFTQKGNLLRHIKL [46F_47F_49E_50I_52G_53H_54P_55F_67L_, Q9UKT9] ; output its category
Result string: low

Query string: Entry FYCEICGADFTQKGNLLRHIKL [46F_47Y_49E_50I_52G_53A_54D_55F_67L_, Q9UKT9] belongs to which category?
Result string: low

Query string: Category lookup for the sequence LRCNQCGFGCTQKGNLLRHIKL [46L_47R_49N_50Q_52G_53F_54G_55C_67L_, Q9UKT9]
Result string: low
